- target.of.assay: T1, recombinant human PD-1 expressed with a C-terminal myc-myc-hexahistidine tag (human)
- T1 construct: monomeric; also called hPD-1-MMH; human PD-1-MMH
- assay.details: SPR, mAb captured, 37C;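 note: rate constants from fitting sensorgrams to a 1:1 binding model, KD derived as kd divided by ka and half-life as ln2/(60·kd)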

binder	Kd / nM
H1M7799N (antibody, mouse IgG1, V domains shown, Human variable regions, mouse IgG1 Fc) VH: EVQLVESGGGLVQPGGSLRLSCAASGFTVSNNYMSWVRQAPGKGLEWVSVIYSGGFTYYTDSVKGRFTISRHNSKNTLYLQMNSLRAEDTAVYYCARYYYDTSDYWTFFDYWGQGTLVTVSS VL: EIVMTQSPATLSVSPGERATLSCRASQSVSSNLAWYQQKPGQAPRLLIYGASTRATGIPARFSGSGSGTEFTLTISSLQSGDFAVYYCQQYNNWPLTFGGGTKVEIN	536
H2aM7791N (antibody, mouse IgG2a, V domains shown, Human variable regions, mouse IgG2a Fc; also called H2M7791N) VH: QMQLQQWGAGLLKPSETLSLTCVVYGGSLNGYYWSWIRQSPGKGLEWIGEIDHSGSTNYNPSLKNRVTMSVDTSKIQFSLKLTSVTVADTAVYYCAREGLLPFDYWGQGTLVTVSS VL: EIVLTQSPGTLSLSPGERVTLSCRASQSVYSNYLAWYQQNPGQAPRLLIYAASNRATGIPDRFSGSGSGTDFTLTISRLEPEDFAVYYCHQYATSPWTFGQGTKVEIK	53.5
H4H7798N (antibody, human IgG4 S228P, kappa, V domains shown) VH: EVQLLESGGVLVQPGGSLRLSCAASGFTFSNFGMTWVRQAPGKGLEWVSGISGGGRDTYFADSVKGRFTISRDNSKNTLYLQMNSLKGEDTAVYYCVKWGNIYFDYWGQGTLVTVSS VL: DIQMTQSPSSLSASVGDSITITCRASLSINTFLNWYQQKPGKAPNLLIYAASSLHGGVPSRFSGSGSGTDFTLTIRTLQPEDFATYYCQQSSNTPFTFGPGTVVDFRR	7.48
H1M7800N (antibody, mouse IgG1, V domains shown, Human variable regions, mouse IgG1 Fc) VH: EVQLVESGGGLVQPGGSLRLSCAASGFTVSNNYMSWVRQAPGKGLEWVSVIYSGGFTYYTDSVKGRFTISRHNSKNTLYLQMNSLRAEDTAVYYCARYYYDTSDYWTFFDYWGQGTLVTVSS VL: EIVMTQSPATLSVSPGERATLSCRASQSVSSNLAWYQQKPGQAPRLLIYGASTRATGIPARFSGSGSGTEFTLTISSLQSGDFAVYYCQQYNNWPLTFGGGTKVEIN	510
H1M7789N (antibody, mouse IgG1, V domains shown, Human variable regions, mouse IgG1 Fc) VH: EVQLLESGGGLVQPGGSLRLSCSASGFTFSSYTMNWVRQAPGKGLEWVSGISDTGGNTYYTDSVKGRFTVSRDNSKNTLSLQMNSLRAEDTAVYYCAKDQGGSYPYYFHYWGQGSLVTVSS VL: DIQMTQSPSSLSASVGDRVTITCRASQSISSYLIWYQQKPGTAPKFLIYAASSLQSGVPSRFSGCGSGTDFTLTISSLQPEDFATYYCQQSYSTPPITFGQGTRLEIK	6.52
H2aM7795N (antibody, mouse IgG2a, V domains shown, Human variable regions, mouse IgG2a Fc; also called H2M7795N) VH: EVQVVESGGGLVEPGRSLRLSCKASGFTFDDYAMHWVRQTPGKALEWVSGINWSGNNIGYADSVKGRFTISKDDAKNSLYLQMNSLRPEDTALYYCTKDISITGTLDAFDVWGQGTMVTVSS VL: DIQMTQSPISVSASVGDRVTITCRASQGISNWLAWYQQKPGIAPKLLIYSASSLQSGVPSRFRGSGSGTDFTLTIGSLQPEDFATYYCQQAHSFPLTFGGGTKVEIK	67.8
H2aM7798N (antibody, mouse IgG2a, V domains shown, Human variable regions, mouse IgG2a Fc; also called H2M7798N) VH: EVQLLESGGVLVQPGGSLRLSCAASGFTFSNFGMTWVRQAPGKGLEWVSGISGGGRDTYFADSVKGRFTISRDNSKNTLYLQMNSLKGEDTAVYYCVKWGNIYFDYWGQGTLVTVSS VL: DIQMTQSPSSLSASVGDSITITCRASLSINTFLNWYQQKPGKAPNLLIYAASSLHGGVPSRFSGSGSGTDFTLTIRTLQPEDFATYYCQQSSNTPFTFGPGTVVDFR	3.79
